- Tested on: Zika virus NS2B-NS3 protease (linked construct)
- experiment_summary: Primary screen NINDS Rhodamine qHTS for Zika virus inhibitors (AID 1347160); note: nearly all actives have a fitted effect of over 55% in size
- experimental_setup: purified NS2B-NS3 protease, Rhodamine110 substrate fluorescence; series mostly up to 57.1 µM
Inconclusive results are not listed. The source made the active and inactive calls. Calls come from the whole dose curve; as a rule, active = well fitted inhibition curve with a large enough effect; inconclusive = small, poorly fitted or top-dose-only effect; inactive = no such curve, though single readings can be large or run the other way.
Can you answer with just one of these options? 1.0 = active, 0.0 = inactive

CC1=CC[C@@]2(C[C@@H]1O)[C@@H](C(=O)O)CC[C@H]2C(C)C : 0.0

Prompt: Answer briefly: the call reported for N#CCC(C1CCCC1)n1cc(-c2ncnc3[nH]ccc23)cn1 (stereo not drawn) in this assay.
Response: 0.0

Prompt: # iterate: `FC(F)(F)c1ccc(CNc2ccc(Cc3c[nH]c4ncccc34)cn2)cc1`
Response: 0.0

Prompt: # iterate: `C=CC(=O)Nc1cccc(Nc2nc(Nc3ccc(Oc4ccnc(C(=O)NC)c4)cc3)ncc2F)c1`
Response: 0.0

Prompt: # iterate: `CC1=CC2=C[C@H](C)C[C@@]23OC(=C(C)C3=O)CC(C)(C)/C=C/C1=O`
Response: 1.0

Prompt: # iterate: `O=C(O)Cc1c[nH]c2ccccc12`
Response: 0.0

Prompt: # iterate: `CC[C@H](C)[C@H]1O[C@]2(CC[C@@H]1C)C[C@@H]1C[C@@H](C/C=C(\C)[C@@H](O[C@H]3C[C@H](OC)[C@@H](O[C@H]4C[C@H](OC)[C@@H](O)[C@H](C)O4)[C@H](C)O3)[C@@H](C)/C=C/C=C3\CO[C@@H]4[C@H](O)C(C)=C[C@@H](C(=O)O1)[C@]34O)O2`
Response: 0.0

Prompt: # iterate: COC1C(O)C(OC(N)=O)C(Oc2ccc3c(O)c(NC(=O)c4ccc(O)c(CC=C(C)C)c4)c(=O)oc3c2C)OC1(C)C (stereo not drawn)
Response: 1.0

The reported numbers originate from PubChem BioAssay (NCATS).
